assay: chemical genetic growth profiling, strain panel (AID 1159580);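 further: tested at 20 µM; growth read once vehicle control cultures reached saturation at 30 °C; 1 = growth at the plate median or of vehicle wells; lower values mean less growth of the strain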; details: S. cerevisiae deletion strains, growth OD, locus YGL167C, strain pmr1, active compounds read low
Screen size: about 5,500 compounds; about 2,000 (36%) were called active. Roughly 18% stayed inconclusive and do not appear here. The list shows a part of the results.
assay metric: normalized growth
Just the number, please, no unit after it.

1) O=C(O)c1c2ccccc2cc2ccccc12: 1
2) NCCSSCCN: 0.993
3) O=C(O)c1cc2ccccc2c(Cc2c(O)c(C(=O)O)cc3ccccc23)c1O: 0.994
4) CC(Oc1ccccc1)C(=O)N[C@@H]1C(=O)N2[C@@H]1SC(C)(C)[C@@H]2C(=O)O (some centres undefined): 0.999
5) COc1cc2c(cc1OC)[C@@H]1C(=O)c3ccc(OC)c(CC=C(C)C)c3O[C@@H]1CO2: 1.03

Per the record, CO[C@H]1[C@H](O)[C@H](O[C@H]2CC[C@]3(C)C4CC[C@]5(C)C(C6=CC(=O)OC6)CC[C@]5(O)C4CC[C@@H]3C2)O[C@@H](C)[C@@H]1O (some centres undefined) has normalized growth of 1

Per the record, CC1=C(C/C=C(\C)CCC[C@H](C)CCC[C@H](C)CCCC(C)C)C(=O)c2ccccc2C1=O has normalized growth of 0.989

Per the record, COc1ccc2c(c1OC)C(=O)O[C@@H]2[C@H]1c2cc3c(cc2CCN1C)OCO3 has normalized growth of 0.984

Per the record, c1ccc(N=Nc2ccccc2)cc1 has normalized growth of 0.992

Per the record, CCCCCCCCNC(C)C(O)c1ccc(SC(C)C)cc1 (centres undefined) has normalized growth of 0.077

Per the record, CCC(=O)O[C@H]1[C@H](O[C@@H]2[C@@H](C)[C@H](O[C@H]3C[C@@](C)(OC)[C@@H](O)[C@H](C)O3)[C@@H](C)C(=O)O[C@H](CC)[C@@](C)(O)[C@H](O)[C@@H](C)C(=O)[C@H](C)C[C@@]2(C)O)O[C@H](C)C[C@@H]1N(C)C has normalized growth of 1

Per the record, CC(CCc1ccccc1)NC(C)C(O)c1ccc(O)cc1 (centres undefined) has normalized growth of 1

Per the record, CC(C)OC(=O)C(C)(C)Oc1ccc(C(=O)c2ccc(Cl)cc2)cc1 has normalized growth of 0.957

Per the record, CC1=C(C(C)O)C2=NC1C=c1[nH]c(c(C)c1C(C)O)=Cc1[nH]c(c(CCC(=O)O)c1C)C=c1[nH]c(c(C)c1CCC(=O)O)=C2 (centres undefined) has normalized growth of 0.995

meta.source: PubChem BioAssay AID1159580
